System: Radical scavenging activity
PROTOCOL TEXT: Antioxidant activity assessed as DPPH radical scavenging activity after 10 mins
Assay type: functional
// EC50 lookup, one value per entry
Quick reminder: number only, in µM, skip the unit.

Some solved entries appear below for comparison.
# MOLECULE, UNITS SYMBOL, EC50
data = [
    ("C/C=C/c1cc2c(c(=O)o1)-c1c(O)c(O)c(OC)c(C(=O)O)c1C(O)O2 (stereo not given)", "µM", 19.6),
    ("C/C=C/c1cc2c(c(=O)o1)-c1c(O)c(O)c(OC)c(C(=O)O)c1CO2", "µM", 19.3),
    ("Cc1c(C)c2c(c(C)c1O)CCC(C)(C(=O)O)O2 (stereo not given)", "µM", 22.1),
]

Consider the additional molecule presented here.
Please fill in: EC50 reported for C/C=C/c1cc2c(c(=O)o1)-c1c(O)c(O)c(OC)c(C(=O)O)c1C(OC)O2 (stereo not given) = 13.9
